# Lookup of reported protein stability index keyed by entry
System: Saccharomyces cerevisiae
protocol-summary: protein stability index of tFT-peptide fusion (C-terminal peptide) (PSI (0-1 scale)); higher = more stable (slower turnover)
details: genetic background: wild type; temperature: 30 C
readout: protein stability index

1. FRTLVEAGSLMD | 0.7
2. CGVVSSSVDCIN | 0.699
3. SPSPLPLSPSPL | 0.749
4. SPLTCKSLRAQR | 0.738
5. PHPPSCPLTPPP | 0.666
6. TFSFPSPAPHSC | 0.781
7. VGEAGTRASVPV | 0.665
8. DFVYFPPIPVSS | 0.337
9. LVVWFGYFGCLL | 0.56

----------
Tested on: Saccharomyces cerevisiae
protocol-summary: protein stability index of tFT-peptide fusion (C-terminal peptide) (PSI (0-1 scale)); higher = more stable (slower turnover)
details: genetic background: wild type; temperature: 30 C
Listing of recorded protein stability index by entry.
readout: protein stability index

1) PTLLRRVPPVPL | 0.677
2) ESGDKYKRRTQP | 0.699
3) RVLVSPPPPLPS | 0.688
4) RYVSCLSIPCLL | 0.637
5) RGWGWGRKVSVG | 0.62
6) RACGVSMRIKGG | 0.695
7) TGKWRSFQAYYY | 0.667
8) SPEFIQAIQNPV | 0.724
9) FVSGSVCPLLPP | 0.667
10) KNKKNKKKTPTT | 0.727
11) GFRVPVVVGVRG | 0.432
12) RKNENKKKKNKK | 0.702
13) SGYCCDGCKGSY | 0.646
14) RSSNRRAIRSHD | 0.711
15) FLISLPLPAPLP | 0.679
16) SLFLSRRSLYRV | 0.738
17) RTRRRQELNHSK | 0.735
18) AGVASTETREGG | 0.685
19) CRSRRPFGSDPI | 0.69
20) FPPPLHFPPLPA | 0.723
21) TGSRHDLDGSMK | 0.679
22) SSPPPAFPRASP | 0.633
23) YINILKLVMNQD | 0.736
24) IYFFFFALHFPN | 0.524
25) LRGVDSALCGAR | 0.693
26) TRTELGKRWIRR | 0.697
27) GHGGSKIYCLVD | 0.637
28) PPHLFLPSSMPF | 0.693
29) RPPYRRSPPRSP | 0.616
30) QQDHRSHAHRRL | 0.705
31) FPSCSAGLHLNL | 0.752
32) RCPRSPPQPLWT | 0.731
33) AFAFLLHRFLLV | 0.148
34) VKGKLGSGSYIH | 0.644
35) FAPVPPRATFSH | 0.691
36) RHPALPGPPGSS | 0.698

----------
Let's look at some sequences and their measured protein stability index.
System: Saccharomyces cerevisiae;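 further: PSI is a weighted mean of sequencing reads over stability bins, variants kept only with over 10 reads, mCherry proximal and sfGFP distal, peptide attached via GGGS linker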
protocol-summary: protein stability index of tFT-peptide fusion (C-terminal peptide) (PSI (0-1 scale)); higher = more stable (slower turnover)
details: genetic background: wild type; temperature: 30 C
readout: protein stability index

1. HPPPSPRPPPPP | 0.691
2. GGDGGGERGEGK | 0.701
3. AGSLCSVVFFSG | 0.688
4. GVGAERCFVGVV | 0.681
